All figures here come from ChEMBL document CHEMBL1147697.

Experiment: Clearance in Beagle dog at 2 mg/kg, iv
Assay type: ADME, organism-based, Canis lupus familiaris
Design: dose 2 mg/kg, route intravenous
Details: in vivo
parameter: clearance (mL/min/kg)
Express it in mL/min/kg; write the number only.

Q: Quick check: clearance of "Cc1cc(COc2ccc(C(=O)NC3(CC(=O)NO)CCOCC3)cc2)c2ccccc2n1" ?
A: 38.3

###

Test: Clearance in Beagle dog at 0.5 mg/kg, iv
Format: ADME, organism-based, Canis lupus familiaris
Set-up: dose 0.5 mg/kg, route intravenous
Conditions: in vivo
parameter: clearance
State the result as a value with its unit after it.

Q: What does the record list as clearance for "Cc1cc(COc2ccc(C(=O)NC3(CC(=O)NO)CCNCC3)cc2)c2ccccc2n1" ?
A: 5 mL/min/kg
